B1: WW domain-binding protein 4, residues 8 to 43; numbered along this chain, O75554 (parent)
chain: QPKKFCDYCKCWIADNRPSVEFHERGKNHKENVAKR

Variants of: B1
Assay: abundance fitness (aPCA) (normalised: wild type 0, dead -1); higher = more abundant; growth selection in yeast, the domain comes from the species named
Conditions: Homo sapiens
property label: abundance fitness

Query string: Consider the variant QPKKFCDYCKSWIADNRPSVEFHERGKNHKENVAKR [C11S] and give its measured abundance fitness.
Result string: 0.101

Query string: Ok, now QPKKFCDYCKCWIADNWPSVEFHERGKNHKENVAKR [R17W]
Result string: -0.389

Query string: Ok, now QPKKFCDYCKCWIADNRPSVEFHERGKNHKENVPKR [A34P]
Result string: -0.309

Query string: Ok, now QPKKFCDYCKCWIADNRPSVEFHERGQNHKENVAKR [K27Q]
Result string: -0.032

Query string: Ok, now QPKKFCDYCKCWIADNRPSVEFHERGKNHKENVAMR [K35M]
Result string: -0.092

Query string: Ok, now QPKKFCDYCKCWIADNRASVEFHERGKNHKENVAKR [P18A]
Result string: -0.108

Query string: Ok, now QPKKFCDYCKCWIADNRPSVEFLERGKNHKENVAKR [H23L]
Result string: -0.838

Query string: Ok, now QPKKFCDYCKCWIADNRPSVEFHMRGKNHKENVAKR [E24M]
Result string: -0.451

Query string: Ok, now QPKKFCDYCKCPIADNRPSVEFHERGKNHKENVAKR [W12P]
Result string: 0.188

Query string: Ok, now QPKKFCDYCKCWIADNRPSYEFHERGKNHKENVAKR [V20Y]
Result string: -0.63

Query string: Ok, now QPKKFCDYCKCWIADNRPSVEFHERGKNWKENVAKR [H29W]
Result string: -0.481

Query string: Ok, now QPKKFCDYCKCWIADNRPSVEFHERGKNPKENVAKR [H29P]
Result string: -0.894

Query string: Ok, now QPWKFCDYCKCWIADNRPSVEFHERGKNHKENVAKR [K3W]
Result string: -0.997

Query string: Ok, now QPKKFCDYCKCWIADNRPSVEFHERGKNHKEIVAKR [N32I]
Result string: -0.446

Query string: Ok, now QPKKFCDYCKCWIADNRPSVEFHERGKNHLENVAKR [K30L]
Result string: -0.061

Query string: Ok, now QPKKFCDYCKCWIADNRPSTEFHERGKNHKENVAKR [V20T]
Result string: -0.183

Query string: Ok, now QPCKFCDYCKCWIADNRPSVEFHERGKNHKENVAKR [K3C]
Result string: -1.59

Query string: Ok, now QPKKFNDYCKCWIADNRPSVEFHERGKNHKENVAKR [C6N]
Result string: -0.919

Query string: Ok, now QPKKFCGYCKCWIADNRPSVEFHERGKNHKENVAKR [D7G]
Result string: -0.173

Query string: Ok, now QPKKFCDYCKCWIADNRPSVEFHERGKNHRENVAKR [K30R]
Result string: 0.049

Query string: Ok, now QPKKFCDYCKCWIADNRPSVEFHPRGKNHKENVAKR [E24P]
Result string: -0.915

Query string: Ok, now QPKKFCDYCKCWIWDNRPSVEFHERGKNHKENVAKR [A14W]
Result string: -0.338

Query string: Ok, now QGKKFCDYCKCWIADNRPSVEFHERGKNHKENVAKR [P2G]
Result string: 0.136

Query string: Ok, now QPKKFCDYCKCWIADNRPSPEFHERGKNHKENVAKR [V20P]
Result string: -0.512

Query string: Ok, now QPKKFCDYCKCDIADNRPSVEFHERGKNHKENVAKR [W12D]
Result string: -0.219

Query string: Ok, now QPKKFCDYCQCWIADNRPSVEFHERGKNHKENVAKR [K10Q]
Result string: -0.146

Query string: Ok, now QPKKFCDYCKCWIADNRPSVEMHERGKNHKENVAKR [F22M]
Result string: 0.235

Query string: Ok, now QPKKFCDYCKCWIADNRPSWEFHERGKNHKENVAKR [V20W]
Result string: -0.189

Query string: Ok, now QPKKFCDMCKCWIADNRPSVEFHERGKNHKENVAKR [Y8M]
Result string: 0.054

Query string: Ok, now QPKKFCDYCKCWIADNRPSVEFHKRGKNHKENVAKR [E24K]
Result string: -0.187

Query string: Ok, now QPKKFCDYCKDWIADNRPSVEFHERGKNHKENVAKR [C11D]
Result string: 0.144

Query string: Ok, now QPKKFCDYCKCWIADNRPSVEFEERGKNHKENVAKR [H23E]
Result string: -0.6

Query string: Ok, now QPKKFCDYCKCWIADNRPSVEFHERGKNHKECVAKR [N32C]
Result string: -0.158

Query string: Ok, now QPKKFCDYCACWIADNRPSVEFHERGKNHKENVAKR [K10A]
Result string: -0.126

Query string: Ok, now QPKKFCVYCKCWIADNRPSVEFHERGKNHKENVAKR [D7V]
Result string: -0.6

Query string: Ok, now QPKKFCDYCKCWDADNRPSVEFHERGKNHKENVAKR [I13D]
Result string: -0.171

Query string: Ok, now QPKKFCDYCKCWIADNRNSVEFHERGKNHKENVAKR [P18N]
Result string: -0.177

Query string: Ok, now QPKKFCDYCKCWIADNRPHVEFHERGKNHKENVAKR [S19H]
Result string: -0.269

Query string: Ok, now QPKKFCDYCKVWIADNRPSVEFHERGKNHKENVAKR [C11V]
Result string: 0.066

Query string: Ok, now QPKKFCDYCKCWIADNRSSVEFHERGKNHKENVAKR [P18S]
Result string: -0.192

Query string: Ok, now QPKKFCDYCKCWIMDNRPSVEFHERGKNHKENVAKR [A14M]
Result string: -0.602

Query string: Ok, now QPKKFCDYCKLWIADNRPSVEFHERGKNHKENVAKR [C11L]
Result string: -0.045

Query string: Ok, now QPKKVCDYCKCWIADNRPSVEFHERGKNHKENVAKR [F5V]
Result string: -0.565

Query string: Ok, now QPKKFCDYCKPWIADNRPSVEFHERGKNHKENVAKR [C11P]
Result string: -0.475

Query string: Ok, now QPKKFCDYCKCWIADNRPSVEIHERGKNHKENVAKR [F22I]
Result string: -0.33

Query string: Ok, now QPKKFCDYCKCWIADNRPSVAFHERGKNHKENVAKR [E21A]
Result string: -0.163

Query string: Ok, now QPKKFCDYCKCWIADNRPSVMFHERGKNHKENVAKR [E21M]
Result string: -0.332

Query string: Ok, now QPKKFCDYCKCWIADNRPSVEFHERMKNHKENVAKR [G26M]
Result string: 0.057

Query string: Ok, now QPKKFCDYCKCWIADNRPSVEFHERGKNHKEMVAKR [N32M]
Result string: -0.228

Query string: Ok, now QPTKFCDYCKCWIADNRPSVEFHERGKNHKENVAKR [K3T]
Result string: -0.275

Query string: Ok, now RPKKFCDYCKCWIADNRPSVEFHERGKNHKENVAKR [Q1R]
Result string: -0.979

Query string: Ok, now QPKKFCDYCKCWIADNRPSVEFWERGKNHKENVAKR [H23W]
Result string: -0.601

Query string: Ok, now QPKKFCDYCKCWIADNRPSVEDHERGKNHKENVAKR [F22D]
Result string: 0.132

Query string: Ok, now QPKKFCDYCKCWMADNRPSVEFHERGKNHKENVAKR [I13M]
Result string: 0.209

Query string: Ok, now QPKKFCDYCKCWIADNRPSVPFHERGKNHKENVAKR [E21P]
Result string: -0.467

Query string: Ok, now QPKKFCDYCKCWIADNGPSVEFHERGKNHKENVAKR [R17G]
Result string: 0.005

Query string: Ok, now QWKKFCDYCKCWIADNRPSVEFHERGKNHKENVAKR [P2W]
Result string: -0.692

Query string: Ok, now QPKKFCDYCKCWIADNRPSVEFHERHKNHKENVAKR [G26H]
Result string: 0.08

Query string: Ok, now QPKKFCDYCKCWIADNRPSVEFHERGKNHTENVAKR [K30T]
Result string: 0.201

Query string: Ok, now QPKKSCDYCKCWIADNRPSVEFHERGKNHKENVAKR [F5S]
Result string: -0.468

Query string: Ok, now QPKKFCDYCSCWIADNRPSVEFHERGKNHKENVAKR [K10S]
Result string: -0.151

Query string: Ok, now QPKKFCDYCKCWIADNRPSVEFHERGKNHKENVAPR [K35P]
Result string: -0.002

Query string: Ok, now QPKKFCDYCKCWIADNRPSVEFHARGKNHKENVAKR [E24A]
Result string: -0.303

Query string: Ok, now QPKKFCDYCKCWIADNRPSVEFHERGSNHKENVAKR [K27S]
Result string: -0.128

Query string: Ok, now QPKKFCDYCKCWIQDNRPSVEFHERGKNHKENVAKR [A14Q]
Result string: -0.264

Query string: Ok, now QPKKFCDYCKCWIADNRPSVEFHERGKNAKENVAKR [H29A]
Result string: -0.309

Query string: Ok, now QPKKFFDYCKCWIADNRPSVEFHERGKNHKENVAKR [C6F]
Result string: -0.653

Query string: Ok, now QPKKFCDYCKCWIADNRISVEFHERGKNHKENVAKR [P18I]
Result string: -0.349

Query string: Ok, now QPKKFVDYCKCWIADNRPSVEFHERGKNHKENVAKR [C6V]
Result string: -0.756

Query string: Ok, now QPKKFCDYCKCWIRDNRPSVEFHERGKNHKENVAKR [A14R]
Result string: -0.381

Query string: Ok, now QPKKICDYCKCWIADNRPSVEFHERGKNHKENVAKR [F5I]
Result string: -0.379

Query string: Ok, now QPKRFCDYCKCWIADNRPSVEFHERGKNHKENVAKR [K4R]
Result string: -0.374

Query string: Ok, now QPKKFCDYCKAWIADNRPSVEFHERGKNHKENVAKR [C11A]
Result string: 0.052

Query string: Ok, now QPKKFTDYCKCWIADNRPSVEFHERGKNHKENVAKR [C6T]
Result string: -0.521

Query string: Ok, now QPKKFCDYCKCWIADNRPSVEFHERGKNHKETVAKR [N32T]
Result string: -0.142

Query string: Ok, now QPKKFCDYCKMWIADNRPSVEFHERGKNHKENVAKR [C11M]
Result string: 0.084

Query string: Ok, now QPSKFCDYCKCWIADNRPSVEFHERGKNHKENVAKR [K3S]
Result string: -0.102

Query string: Ok, now QPKKFCDYCKCWIADNKPSVEFHERGKNHKENVAKR [R17K]
Result string: -0.098

Query string: Ok, now QPKKFCDYCKCWIADNRPSVEFHERGKNHKENVARR [K35R]
Result string: 0.004

Query string: Ok, now QPKKFCDYCKCWIADNRPFVEFHERGKNHKENVAKR [S19F]
Result string: -0.797

Query string: Ok, now QPKKFCDYCKCEIADNRPSVEFHERGKNHKENVAKR [W12E]
Result string: -0.238

Query string: Ok, now QPKKFCDYCKCWIADNRPSREFHERGKNHKENVAKR [V20R]
Result string: -0.226

Query string: Ok, now QPKKFCDYCKCWIADNRPTVEFHERGKNHKENVAKR [S19T]
Result string: -0.079

Query string: Ok, now QPKKFCDYCKCWIADARPSVEFHERGKNHKENVAKR [N16A]
Result string: 0.135

Query string: Ok, now QPMKFCDYCKCWIADNRPSVEFHERGKNHKENVAKR [K3M]
Result string: 0.074

Query string: Ok, now QPKKFCDYCKCWIADNRPVVEFHERGKNHKENVAKR [S19V]
Result string: -0.451

Query string: Ok, now QPKKFCDYCKCWIADNRPSVEFHERGKNHKERVAKR [N32R]
Result string: -0.1

Query string: Ok, now QPKKFCDYCKCWIADNRPSVEFHERGKSHKENVAKR [N28S]
Result string: -0.001

Query string: Ok, now QPKKFCDYCKCWIADNRPSVEFHERGKNHKANVAKR [E31A]
Result string: 0.01

Query string: Ok, now QPHKFCDYCKCWIADNRPSVEFHERGKNHKENVAKR [K3H]
Result string: -0.569

Query string: Ok, now QPKKFCDYCKCWIADNRPSVWFHERGKNHKENVAKR [E21W]
Result string: -0.295
